# assayedSystem: CD94/NKG2A (Homo sapiens, UniProt P26715+Q13241)
# Sequence (P26715 94-233 limits assumed): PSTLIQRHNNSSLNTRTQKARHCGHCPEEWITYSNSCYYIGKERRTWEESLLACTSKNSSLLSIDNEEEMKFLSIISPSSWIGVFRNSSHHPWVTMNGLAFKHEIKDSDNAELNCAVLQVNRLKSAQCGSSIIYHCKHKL
# Sequence (Q13241 32-179 limits assumed): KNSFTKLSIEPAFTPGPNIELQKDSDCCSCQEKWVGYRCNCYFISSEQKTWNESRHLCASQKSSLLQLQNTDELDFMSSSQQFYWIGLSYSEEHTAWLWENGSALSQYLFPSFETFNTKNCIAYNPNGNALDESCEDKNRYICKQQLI
# testSummary: Steady-state surface plasmon resonance of peptide-HLA-E complex with CD94/NKG2A
# Assay type: binding
# conditionNotes: steady-state SPR; CD94/NKG2A analyte concentration 0.100 μM
Where no end group is shown, it is not given here.
measureName: Binding of peptide-HLA-E complexes to CD94/NKG2A normalized to a theoretical Rmax
Please reply with the value in numeric form only.

Asked: Report Binding of peptide-HLA-E complexes to CD94/NKG2A normalized to a theoretical Rmax for TGPWRSLWI [human3, TGPWRSLWI] tested on CD94/NKG2A (Homo sapiens, UniProt P26715+Q13241).
Given back: 0.005

Asked: Form entry - test system: CD94/NKG2A (Homo sapiens, UniProt P26715+Q13241); read-out: Binding of peptide-HLA-E complexes to CD94/NKG2A normalized to a theoretical Rmax; sequence: VNPGRSLFL [human5, VNPGRSLFL]
Given back: 0.074

Asked: Which Binding of peptide-HLA-E complexes to CD94/NKG2A normalized to a theoretical Rmax is reported with CD94/NKG2A (Homo sapiens, UniProt P26715+Q13241) for this entry: QMPSRSLLF [human1, QMPSRSLLF] ?
Given back: 0.025

Asked: Query Binding of peptide-HLA-E complexes to CD94/NKG2A normalized to a theoretical Rmax on CD94/NKG2A (Homo sapiens, UniProt P26715+Q13241) for TAPARTMFL [human13, TAPARTMFL]
Given back: 0.015

Asked: Form field: Binding of peptide-HLA-E complexes to CD94/NKG2A normalized to a theoretical Rmax recorded for TLPKRGLFL [human2, TLPKRGLFL] with CD94/NKG2A (Homo sapiens, UniProt P26715+Q13241) (enter value)
Given back: 0.017
